Consider compounds characterized by their Ki with prothrombinase (Homo sapiens (Human), UniProt P00742).
Sequence (P00742 235-488): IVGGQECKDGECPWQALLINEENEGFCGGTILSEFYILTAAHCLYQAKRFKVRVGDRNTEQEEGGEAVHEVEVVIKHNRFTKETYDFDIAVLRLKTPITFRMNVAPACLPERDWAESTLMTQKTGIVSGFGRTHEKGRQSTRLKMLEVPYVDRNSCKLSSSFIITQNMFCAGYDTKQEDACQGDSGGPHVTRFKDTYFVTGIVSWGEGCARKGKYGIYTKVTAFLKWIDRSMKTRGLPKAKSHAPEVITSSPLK
Sequence (P00742 41-179): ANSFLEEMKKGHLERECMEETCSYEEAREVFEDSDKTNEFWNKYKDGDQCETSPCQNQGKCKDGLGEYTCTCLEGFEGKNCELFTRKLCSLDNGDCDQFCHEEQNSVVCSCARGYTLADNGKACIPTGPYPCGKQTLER
Sequence (P12259 29-737 partner): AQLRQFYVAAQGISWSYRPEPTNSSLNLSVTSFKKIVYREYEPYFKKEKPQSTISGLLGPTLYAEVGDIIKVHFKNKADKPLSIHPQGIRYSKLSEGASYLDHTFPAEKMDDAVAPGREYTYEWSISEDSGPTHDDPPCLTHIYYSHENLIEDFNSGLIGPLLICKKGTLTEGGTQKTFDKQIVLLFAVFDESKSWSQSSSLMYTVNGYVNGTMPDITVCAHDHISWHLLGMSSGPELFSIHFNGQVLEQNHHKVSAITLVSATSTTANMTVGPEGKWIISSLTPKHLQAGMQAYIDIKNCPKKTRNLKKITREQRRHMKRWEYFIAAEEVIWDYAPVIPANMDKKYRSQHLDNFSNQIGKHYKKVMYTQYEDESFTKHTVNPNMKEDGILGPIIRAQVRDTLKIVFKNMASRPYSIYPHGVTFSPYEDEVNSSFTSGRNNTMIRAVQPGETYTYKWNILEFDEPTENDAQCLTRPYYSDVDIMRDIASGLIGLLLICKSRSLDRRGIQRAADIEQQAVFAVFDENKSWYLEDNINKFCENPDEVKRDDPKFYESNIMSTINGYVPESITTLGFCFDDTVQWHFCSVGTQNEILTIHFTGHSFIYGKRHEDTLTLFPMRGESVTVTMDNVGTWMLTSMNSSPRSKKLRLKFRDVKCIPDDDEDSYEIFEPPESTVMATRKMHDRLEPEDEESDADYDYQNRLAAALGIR
Sequence (P12259 1574-2224 partner): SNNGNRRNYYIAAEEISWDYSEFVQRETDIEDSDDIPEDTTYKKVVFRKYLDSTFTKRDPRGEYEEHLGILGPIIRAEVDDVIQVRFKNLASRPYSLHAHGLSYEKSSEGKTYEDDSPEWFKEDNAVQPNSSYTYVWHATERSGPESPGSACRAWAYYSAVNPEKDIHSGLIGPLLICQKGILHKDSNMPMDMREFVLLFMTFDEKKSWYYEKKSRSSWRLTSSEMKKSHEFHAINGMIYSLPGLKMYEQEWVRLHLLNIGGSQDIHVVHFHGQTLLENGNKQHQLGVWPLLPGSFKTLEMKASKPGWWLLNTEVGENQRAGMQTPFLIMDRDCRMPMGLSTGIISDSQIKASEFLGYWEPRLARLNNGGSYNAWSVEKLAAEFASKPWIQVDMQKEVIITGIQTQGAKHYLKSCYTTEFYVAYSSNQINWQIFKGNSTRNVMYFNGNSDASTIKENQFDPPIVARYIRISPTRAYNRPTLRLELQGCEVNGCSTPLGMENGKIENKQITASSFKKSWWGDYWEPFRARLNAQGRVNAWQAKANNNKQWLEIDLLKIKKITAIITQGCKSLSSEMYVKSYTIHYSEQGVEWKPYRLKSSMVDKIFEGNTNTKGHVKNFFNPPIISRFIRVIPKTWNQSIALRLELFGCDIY

// solved cases for Ki follow
{"compound": "NC(=O)c1cccc(-n2nc(C(F)(F)F)c3c2C(=O)N(C2CCN(N4CCOCC4=O)CC2)CC3)c1", "result": "10 to 50 nM"}
{"compound": "COc1ccc(-n2nc(C(F)(F)F)c3c2C(=O)N(C2CCN(N4CCCC4=O)CC2)CC3)cc1", "result": "≤ 10 nM"}
{"compound": "NC(=O)c1nn(-c2ccc(OC(F)F)cc2)c2c1CCN(C1CCN(N3CCOCC3=O)CC1)C2=O", "result": "≤ 10 nM"}
{"compound": "O=C1c2c(c(C(F)(F)F)nn2-c2ccc(OC(F)F)cc2)CCN1C1CCN(N2CCOCC2=O)CC1", "result": "≤ 10 nM"}
{"compound": "COc1ccc(-n2nc(C(N)=O)cc2C(=O)NC2CCN(N3CCOCC3=O)CC2)cc1", "result": "10 to 50 nM"}

Given the entry `Nc1noc2ccc(-n3nc(C(F)(F)F)c4c3C(=O)N(C3CCN(N5CCOCC5=O)CC3)CC4)cc12` , what Ki was observed with prothrombinase (Homo sapiens (Human), UniProt P00742)?
≤ 10 nM

Next up: COc1ccc(-n2nc(C(N)=O)c3c2C(=O)N(C2CCN(C4CCNC4=O)CC2)CC3)cc1 (single isomer, unassigned)
10 to 50 nM

Try `COc1ccc(-n2nc(/C(N)=N\C#N)c3c2C(=O)N(C2CCN(N4CCCCC4=O)CC2)CC3)cc1` next.
≤ 10 nM

Now consider `NC(=O)c1nn(-c2ccc(OC(F)(F)F)cc2)c2c1CCN(C1CCN(N3CCOCC3=O)CC1)C2=O` .
50 to 1000 nM

###

pKi: −log10 of the molar value.
The following compounds each carry a recorded pKi for UniProt Q63207.
Sequence (Q63207 232-482): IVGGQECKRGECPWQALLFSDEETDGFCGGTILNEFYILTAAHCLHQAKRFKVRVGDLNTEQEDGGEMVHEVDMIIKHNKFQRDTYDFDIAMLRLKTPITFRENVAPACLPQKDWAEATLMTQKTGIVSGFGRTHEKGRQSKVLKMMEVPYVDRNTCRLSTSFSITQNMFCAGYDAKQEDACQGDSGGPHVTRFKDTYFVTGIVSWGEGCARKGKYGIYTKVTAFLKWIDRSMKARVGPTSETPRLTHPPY
Sequence (Q63207 41-180): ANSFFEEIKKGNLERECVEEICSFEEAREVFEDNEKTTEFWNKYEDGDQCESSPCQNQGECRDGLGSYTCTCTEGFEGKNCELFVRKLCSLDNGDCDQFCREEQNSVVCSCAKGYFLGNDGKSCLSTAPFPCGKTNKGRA

Answered cases to consult:
{"compound": "NC(=O)c1nn(-c2ccc(OC(F)(F)F)cc2)c2c1CCN(C1CCN(N3CCOCC3=O)CC1)C2=O [Example 10]", "result": "6.00 to 7.30"}
{"compound": "COc1ccc(-n2nc(C(N)=O)c3c2C(=O)N(C2CCN(N4CCOCC4=O)CC2)CC3)cc1 [Example 7]", "result": "7.30 to 8.00"}
{"compound": "COc1ccc(-n2nc(C(F)(F)F)c3c2C(=O)N(C2CCN(N4CCOCC4=O)CC2)CC3)cc1F [Example 28]", "result": "≥ 8.00"}
{"compound": "COc1ccc(-n2nc(C(N)=O)c3c2C(=O)N(C2CCN(C4CCNC4=O)CC2)CC3)cc1 (single isomer, unassigned) [Example 8a]", "result": "7.30 to 8.00"}
{"compound": "NC(=O)c1nn(-c2ccc(OC(F)F)cc2)c2c1CCN(C1CCN(N3CCOCC3=O)CC1)C2=O [Example 11]", "result": "7.30 to 8.00"}

Would you mind telling me what pKi value was observed for NC(=O)c1cccc(-n2nc(C(F)(F)F)c3c2C(=O)N(C2CCN(N4CCOCC4=O)CC2)CC3)c1 [Example 31] ?
7.30 to 8.00

Please answer likewise for O=C1c2c(c(C(F)(F)F)nn2-c2cc3ccccc3cc2F)CCN1C1CCN(N2CCOCC2=O)CC1 [Example 29]
≥ 8.00

Do the same for O=C1c2c(c(C(F)(F)F)nn2-c2ccc3cc(Cl)ccc3c2)CCN1C1CCN(N2CCOCC2=O)CC1 [Example 24] please
≥ 8.00

# repeat for Nc1noc2ccc(-n3nc(C(F)(F)F)c4c3C(=O)N(C3CCN(N5CCOCC5=O)CC3)CC4)cc12 [Example 26]
≥ 8.00

Likewise for COc1ccc(-n2nc(/C(N)=N\C#N)c3c2C(=O)N(C2CCN(N4CCCCC4=O)CC2)CC3)cc1 [Example 6] ?
7.30 to 8.00

###

Ki values recorded for human Factor Xa (Homo sapiens (Human))

Please review the entries below; each comes with its answer.
{"line.notation": "CCN(C(=O)c1cc(C(N)=O)nn1-c1ccc(OC)cc1)C1CCN(N2CCOCC2=O)CC1", "Ki": "50 to 1000 nM"}
{"line.notation": "N#Cc1cc(-n2nc(C(F)(F)F)c3c2C(=O)N(C2CCN(N4CCOCC4=O)CC2)CC3)ccc1F", "Ki": "50 to 1000 nM"}
{"line.notation": "COc1ccc(-n2nc(C(N)=O)c3c2C(=O)N(N2CCC(N4CCCCC4=O)CC2)CC3)cc1", "Ki": "≤ 10 nM"}

# next compound below
Fill in the recorded Ki for this compound, with human Factor Xa (Homo sapiens (Human)) as test system: `COc1ccc(-n2nc(C(N)=O)c3c2C(=O)N(C2CCN(N4CCOCC4=O)CC2)CC3)cc1`
Sequence (P00742 235-488): as the sequence (P00742 235-488) above
Sequence (P00742 41-179): as the sequence (P00742 41-179) above
≤ 10 nM

Values from patent US9938272B2
